Item-by-item account of cell viability
# System: SEM cells
# test-name: cell viability relative to DMSO control; higher = less cytotoxic
# experimental-conditions: HPLM + 10% dialyzed FBS; 48 h; 0.19 µM
Please provide the amount together with its unit, number first.

compound	assay-system	cell viability
CCN1CCN(C(=O)Cc2ccc(Nc3ncc(F)c(Nc4ccc(C(=O)Nc5ccccc5Cl)cc4)n3)cc2)CC1	SEM cells	107%
COc1cccc2c1[C@]13CCN(CC4CC4)[C@H](C2)[C@]1(OC)CCC(=O)C3	SEM cells	105%
CC(C)Cc1ccc(C(C)C(=O)O)cc1 (stereo unspecified)	SEM cells	90.7%
C[C@H]1COC/2=C1/C(=O)C(=O)C3=C4CCCC(C)(C)C4=CC=C23	SEM cells	134%
OC1=CC2=C(C(=C1)O)C(=O)\C(=C(/O2)C3=CC(=C(O)C=C3)O)O	SEM cells	94.4%

In: Find the measured cell viability of CN(C)/N=N/c1nc[nH]c1C(N)=O and report it.
Out: 120%

---

# Test system: NOMO1
# test-name: cell viability relative to DMSO control; higher = less cytotoxic
# experimental-conditions: RPMI 5 mM glucose + 10% FBS; 48 h; 1.71 µM
Catalogue of cell viability values
Reply numerically in %, unit not repeated.

// known answers, use as guide
compound	result-value
CC1(C)C(N(O)C(=O)Nc2ccc(Cl)cc2)N(c2ccc(Cl)cc2)C(=O)N1CC(=O)N/N=C/C=C/c1ccc([N+](=O)[O-])o1 (stereo not drawn)	110
C[C@]12CC[C@H]3[C@@H](CCC/4=C/C(=O)CC[C@]34C)[C@@H]1CC[C@@H]2OC(=O)CCC5CCCC5	113
OC[C@H]1O[C@@H]2[C@@H](OC\3=N\C(=N)\C=C/[N@@]23)[C@@H]1O	103
CCOC(=O)Nc1ccc(NCc2ccc(F)cc2)nc1N	105
C[C@H]1O[C@H](C[C@H](O)[C@@H]1O)O[C@H]2[C@@H](O)C[C@@H](O[C@@H]2C)O[C@H]3[C@@H](O)C[C@@H](O[C@@H]3C)O[C@H]4CC[C@@]5(C)[C@H](CC[C@@H]6[C@@H]5C[C@@H](O)[C@]7(C)[C@H](CC[C@]67O)C/8=C/C(=O)OC8)C4	9.57
CNC(=O)[C@H](CC/1=C/N=C\2/C=C\C\C=C12)NC(=O)[C@H](CC(C)C)CC(=O)NO	97.3
N#C[C@H](O[C@@H]1O[C@H](CO[C@@H]2O[C@H](CO)[C@@H](O)[C@H](O)[C@H]2O)[C@@H](O)[C@H](O)[C@H]1O)c1ccccc1	84.5

In: Respond only with cell viability recorded for C=CCc1ccc(O)c(-c2ccc(O)c(CC=C)c2)c1
Out: 61

---

# Test system: P12-Ichikawa
# test-name: cell viability relative to DMSO control; higher = less cytotoxic
# experimental-conditions: RPMI 5 mM glucose + 10% FBS; 48 h; 0.00702 µM
measured-endpoint: cell viability
State the value with its unit after it.

Solved cases below.
mol-smiles	cell viability
Cc1nc(Nc2n[nH]c3c2CN(C(=O)N[C@H](CN(C)C)c2ccccc2)C3(C)C)c2sccc2n1	70.8%
CO/N=C(\C(=O)N[C@@H]1C(=O)N2C(C(=O)OCOC(=O)C(C)(C)C)=C(/C=C\c3scnc3C)CS[C@H]12)c1csc(N)n1	101%
CNC(=O)[C@H](CC/1=C/N=C\2/C=C\C\C=C12)NC(=O)[C@H](CC(C)C)CC(=O)NO	98%

Then this compound:
In: In one line, give reported cell viability of the entry COc1cc(/C=C/C(=O)O)ccc1O .
Out: 91.9%

Cited source for all entries: the supplement of paper PMC11451515
